Measured values drawn from patent US20250090663A1 for this set.

- ASSAYED_TARGET: T1, IL13RA2 Protein, Rhesus macaque, His tag (Rhesus macaque, UniProt A0A5F8A9D9 27-343)
- T1 construct: the summary sentence says cynomolgous; also called Rhesus macaque IL13R alpha 2 protein with His tag; cynomolgous IL 13RA2 (as the text calls it); not shown: His tag
- T1 sequence: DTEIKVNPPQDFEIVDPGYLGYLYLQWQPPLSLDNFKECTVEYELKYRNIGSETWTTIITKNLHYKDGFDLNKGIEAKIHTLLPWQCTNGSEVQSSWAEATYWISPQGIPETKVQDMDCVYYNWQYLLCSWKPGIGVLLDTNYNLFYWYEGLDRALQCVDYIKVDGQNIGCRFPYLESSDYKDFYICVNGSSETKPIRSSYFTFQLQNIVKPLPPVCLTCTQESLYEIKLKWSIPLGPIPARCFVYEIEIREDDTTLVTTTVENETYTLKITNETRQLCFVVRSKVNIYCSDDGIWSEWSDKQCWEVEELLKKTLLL
- ASSAY_DETAILS: BLI; biotinylated VHH captured on streptavidin biosensor, antigen 1 uM in solution
- Experimental: Binding Affinity for the VH domains with IL13Rα2 are calculated as follows: Biotinylated VHHs were individually captured on streptavidin biosensors. VHH-captured biosensors were dipped in wells containing antigen and the binding response was measured. Biosensors were later dipped in buffer wells to observe the dissociation of bound antigen from captured VHH. (Schematic representation of the process depicted in FIG. 26, upper left corner). […]
ASSAY_READOUT: Kd (nM)
One number for each entry, in nM.

Qu. Value lookup for Kd; key = IL13Ra2_2TIG4_f3 (VHH, biotinylated (site not stated), Expressed in E. coli and 6xHIS purified; also called IL13Ra2_2TIG4_f3-Biotin) VHH: QVQLQESGGGLVQPGGSLRLSCAASGRTYGMGWFRQAPGKEREFVAVGVWSSGNTYYADFARGRFTISRDNAKNTVYLQMDSLKPEDTAVYYCAAPRYSSYTTYHAAYDYWGPGTQVTVSS
Ans. 3.62
